# target.entity: MTNR1B (Homo sapiens)
# Construct: purchased Promega (in-house HiBiT-GPCR construct library, NanoBRET)
# Sequence (P49286 whole entry): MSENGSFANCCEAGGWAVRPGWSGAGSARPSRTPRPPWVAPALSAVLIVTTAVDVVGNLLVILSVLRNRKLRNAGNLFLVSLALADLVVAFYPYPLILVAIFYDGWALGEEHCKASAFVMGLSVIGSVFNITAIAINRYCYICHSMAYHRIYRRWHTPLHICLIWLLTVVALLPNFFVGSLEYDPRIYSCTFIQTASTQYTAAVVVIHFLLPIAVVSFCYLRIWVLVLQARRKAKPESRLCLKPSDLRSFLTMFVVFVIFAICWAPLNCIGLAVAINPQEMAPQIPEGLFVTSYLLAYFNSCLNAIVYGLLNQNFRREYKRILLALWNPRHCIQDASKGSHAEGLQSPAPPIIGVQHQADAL
# assay.comment: NanoBRET screen HiBiT-MTNR1B in HEK293
# Type: binding
# conditions.used: MTNR1B; tracer 1μM
# NanoBRET Fold Response per record follows

Sample answers from the record:
O=C(CCc1ccc2n1[B-](F)(F)[N+]1=C(c3ccc[nH]3)C=CC1=C2)NCc1ccc(C(=O)NCCOCCC(=O)N[C@@H]2CC[C@@]3(O)[C@H]4Cc5ccc(O)c6c5[C@@]3(CCN4CC3CC3)[C@H]2O6)cc1 [Naltrexone-3-NB590] | 0.66
COc1ccccc1N1CCN(CCCCN2C(=O)c3ccc(CNC(=O)CCOCCOCCOCCOCCNC(=O)CCc4ccc5n4[B-](F)(F)[N+]4=C(c6ccc[nH]6)C=CC4=C5)cc3C2=O)CC1 [NAN-190-2-NB590] | 1.00
COc1ccccc1N1CCN(CCCCN2C(=O)c3ccc(CNC(=O)CCOCCNC(=O)c4ccc(CNC(=O)CCc5ccc6n5[B-](F)(F)[N+]5=C(c7ccc[nH]7)C=CC5=C6)cc4)cc3C2=O)CC1 [NAN-190-3-NB590] | 1.15

Please turn your attention to the following entry.
Which NanoBRET Fold Response reading was recorded for the compound O=C(CCOCCOCCOCCOCCNC(=O)CCc1ccc2n1[B-](F)(F)[N+]1=C(c3ccc[nH]3)C=CC1=C2)NCCCN1CCN(C2=Nc3ccccc3Oc3ccc(Cl)cc32)CC1 [Loxapine-a-2-NB590] ?
1.04
